Molecular target: Recombinant human renin (Homo sapiens)
Construct: purchased Cayman 10006217
Assay: Inhibition of renin (fluorogenic peptide substrate)
Format: biochemical
pIC50: −log10 of the molar value.
measured_endpoint: pIC50

# chemical_string, experimental_result
measured = [
    ("CN(c1ccccc1)c1c(C(=O)N2CCNCC2)c2ccccc2n1-c1ccccc1", 5.49),
]

###

# key: entry, value: log10 IC50
Molecular target: Recombinant human renin (Homo sapiens)
Construct: purchased Cayman 10006217
Sequence (P00797 67-406): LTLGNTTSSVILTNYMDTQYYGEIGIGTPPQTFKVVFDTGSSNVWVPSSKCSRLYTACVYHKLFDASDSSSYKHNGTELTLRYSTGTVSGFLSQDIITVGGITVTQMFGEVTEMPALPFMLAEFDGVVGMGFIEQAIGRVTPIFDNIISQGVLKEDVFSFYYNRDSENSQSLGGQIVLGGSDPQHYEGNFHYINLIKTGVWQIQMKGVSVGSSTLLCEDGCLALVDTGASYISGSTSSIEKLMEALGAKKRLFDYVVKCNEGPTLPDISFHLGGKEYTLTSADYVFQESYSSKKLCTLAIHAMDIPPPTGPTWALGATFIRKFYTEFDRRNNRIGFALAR
Experiment: Inhibition of renin (fluorogenic peptide substrate)
Format: biochemical
Settings: renin 5 nM, substrate Dabcyl-γ-Abu-[…]-EDANS 10 μM, 2 h room temperature, Tris buffer pH 8; compounds tested as the obtained salt; read-out: IC50 values for inhibition of renin (fluorogenic peptide substrate)
measured_endpoint: log10 IC50 (log10 of the value in µM)

# molecule, tgt, log10 IC50
records = [
    ("Cc1ccc(F)cc1Oc1c(C(=O)N2CCNCC2)c2ccc(OCC(=O)O)cc2n1-c1ccccc1 [Example 30]", "Recombinant human renin (Homo sapiens)", -0.89),
    ("Cc1ccccc1Cc1c(C(=O)N2CCNCC2)c2ccccc2n1-c1ccsc1 [Example 113]", "Recombinant human renin (Homo sapiens)", -0.64),
    ("Cc1ccc(F)cc1Oc1c(C(=O)N2CCNCC2)c2ccccc2n1C1C=CCCC1 (stereo not shown) [Example 22]", "Recombinant human renin (Homo sapiens)", -2.14),
    ("O=C(c1c(Oc2ccccc2)n(-c2ccccc2)c2ccccc12)N1CCCNCC1 [Example 5]", "Recombinant human renin (Homo sapiens)", 0.53),
    ("O=C(c1c(Oc2ccccc2)n(-c2ccccc2)c2ccccc12)N1CCNC(CO)C1 (stereo not shown) [Example 24]", "Recombinant human renin (Homo sapiens)", 0.20),
    ("O=C(c1c(Oc2ccccc2)n(-c2ccccc2)c2ccccc12)N1CCNCC1Cc1ccccc1 (stereo not shown) [Example 126]", "Recombinant human renin (Homo sapiens)", 0.65),
    ("Cc1ccccc1Sc1c(C(=O)N2CCNCC2)c2ccccc2n1-c1ccccc1 [Example 108]", "Recombinant human renin (Homo sapiens)", -1.15),
]
